# Radioactivity level (% ID/g) Cerebellum values compiled below
- Assayed Target: VAChT in the brain (Rattus norvegicus, UniProt Q62666)
- Construct: from tissue; host or cells: brain of living rats, tissue counted or sectioned after killing
- Sequence (Q62666 whole entry): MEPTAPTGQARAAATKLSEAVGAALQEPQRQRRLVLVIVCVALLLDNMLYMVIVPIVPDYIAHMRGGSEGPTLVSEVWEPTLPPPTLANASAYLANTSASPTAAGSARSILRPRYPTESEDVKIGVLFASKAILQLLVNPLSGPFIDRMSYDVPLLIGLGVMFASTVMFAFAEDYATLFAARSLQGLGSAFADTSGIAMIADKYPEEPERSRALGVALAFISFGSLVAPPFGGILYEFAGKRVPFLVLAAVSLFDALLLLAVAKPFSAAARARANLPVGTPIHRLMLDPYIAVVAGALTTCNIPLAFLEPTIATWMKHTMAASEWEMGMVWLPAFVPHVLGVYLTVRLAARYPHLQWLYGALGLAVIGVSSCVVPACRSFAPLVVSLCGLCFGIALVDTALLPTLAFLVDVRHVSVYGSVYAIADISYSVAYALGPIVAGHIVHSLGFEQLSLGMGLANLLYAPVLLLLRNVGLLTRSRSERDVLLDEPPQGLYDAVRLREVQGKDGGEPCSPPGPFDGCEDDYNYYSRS
- Assay Protocol: Inhibitory effects of non-radioactive ligands on cerebral distribution of (−)-[^11C]-o-methylvesamicol in rats
- Assay type: in vivo
- Condition Label: tracer (−)-[^11C]-o-MeVES 20 MBq i.v. together with ligand 500 nmol per kg, 30 minutes, cerebellum, mean ± S.D. n = 4-6
Express it in % ID/g; write the number only.

Sample answers from the record:
| Molecule | Unit Name | Radioactivity level (% ID/g) Cerebellum |
| --- | --- | --- |
| COc1ccc(CCN2CCN(CCCc3ccccc3)CC2)cc1OC [SA4503] | % ID/g | 0.52 |
| Cc1ccccc1C1CCN(C2CCCCC2O)CC1 (single isomer, unassigned; (-)) [(−)-o-MeVES] | % ID/g | 0.60 |
| CC(C)=CCN1CCC2(C)c3cc(O)ccc3CC1C2C (single isomer, unassigned; (+)) [(+)-Pentazocine, (+)-pentazocine] | % ID/g | 2.07 |

Would you kindly look at the next entry?
What measured Radioactivity level (% ID/g) Cerebellum goes with OC1CCCCC1N1CCC(c2ccccc2)CC1 (single isomer, unassigned; (-)) [(−)-Vesamicol, 2-(4-Phenylpiperidino)-cyclohexanol] ? 0.62

Hey, just so you know, these numbers are from patent US20090163461A1.
